Data provenance: ChEMBL document CHEMBL1146887

molecular target: Opioid receptors; delta & kappa (Homo sapiens) (UniProt P41145+P41143); experiment: Selectivity for human cloned delta opioid receptor over kappa opioid receptor; assay type: protein assay
Sequence (P41143 whole entry, looked up): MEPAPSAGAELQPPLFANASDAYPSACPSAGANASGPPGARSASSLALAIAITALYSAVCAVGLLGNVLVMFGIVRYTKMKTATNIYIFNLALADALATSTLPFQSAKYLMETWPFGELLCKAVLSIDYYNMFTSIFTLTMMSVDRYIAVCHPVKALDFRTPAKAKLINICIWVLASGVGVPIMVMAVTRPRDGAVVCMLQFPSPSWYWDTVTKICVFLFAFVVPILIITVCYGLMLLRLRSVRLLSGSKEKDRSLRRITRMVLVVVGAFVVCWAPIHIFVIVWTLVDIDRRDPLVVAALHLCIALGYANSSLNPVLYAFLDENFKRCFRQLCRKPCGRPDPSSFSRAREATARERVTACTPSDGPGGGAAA
Sequence (P41145 whole entry, looked up): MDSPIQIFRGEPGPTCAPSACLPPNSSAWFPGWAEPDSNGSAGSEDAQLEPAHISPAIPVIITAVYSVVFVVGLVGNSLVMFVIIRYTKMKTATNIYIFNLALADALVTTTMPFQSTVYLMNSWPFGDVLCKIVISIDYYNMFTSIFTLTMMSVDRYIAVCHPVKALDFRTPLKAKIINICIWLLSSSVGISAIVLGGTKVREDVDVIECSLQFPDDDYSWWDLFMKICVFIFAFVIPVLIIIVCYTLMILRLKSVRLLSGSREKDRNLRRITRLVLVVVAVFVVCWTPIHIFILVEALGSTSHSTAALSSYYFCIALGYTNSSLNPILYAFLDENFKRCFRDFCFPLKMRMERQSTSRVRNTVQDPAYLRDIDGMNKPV
Where a SMILES comes first, the peptide text is derived from it. [ ]: non-standard residue; d: D form. The star is where a group is joined. Tyr(Nα,Nα-allyl2) = C=CCN(CC=C)[C@@H](Cc1ccc(O)cc1)C(=O)*; Aib = CC(C)(N)C(=O)O
measured-property: Ratio Ke

compound	measured-value
C[C@H]1CN(C)[C@@H]2C[C@@H](NC(=O)C3(c4ccccc4)CCCC3)C[C@@]1(c1cccc(O)c1)C2	0.8
C[C@H]1CN(CCOc2ccccc2)[C@@H]2C[C@@H](NC(=O)C(C)(C)c3ccccc3)C[C@@]1(c1cccc(O)c1)C2	111
CCC(CC)(C(=O)N[C@@H]1C[C@@H]2C[C@](c3cccc(O)c3)(C1)[C@@H](C)CN2CCCc1ccccc1)c1ccccc1	74
Cc1ccccc1/C=C/CN1C[C@H](C)[C@@]2(c3cccc(O)c3)C[C@H](NC(=O)C(C)(C)c3ccccc3)C[C@@H]1C2	14
C[C@H]1CN(CCCc2ccccc2)[C@@H]2C[C@@H](NC(=O)C3(c4ccc(F)cc4)CCCC3)C[C@@]1(c1cccc(O)c1)C2	17
C[C@H]1CN(CCCc2ccccc2)[C@@H]2C[C@@H](NC(=O)C3(c4cccs4)CCCC3)C[C@@]1(c1cccc(O)c1)C2	77
C[C@H]1CN(CCCc2ccccc2)[C@@H]2C[C@@H](NC(=O)C3(c4ccccc4)CCCCC3)C[C@@]1(c1cccc(O)c1)C2	30
Cc1ccccc1/C=C/CN1C[C@H](C)[C@@]2(c3cccc(O)c3)C[C@H](NC(=O)C3(c4ccccc4)CCCC3)C[C@@H]1C2	22
C[C@H]1CN(CCCc2ccccc2)[C@@H]2C[C@@H](NC(=O)C3(c4cccc5ccccc45)CCCC3)C[C@@]1(c1cccc(O)c1)C2	31
C[C@H]1CN(C/C=C/c2ccccc2)[C@@H]2C[C@@H](NC(=O)C(C)(C)c3ccccc3)C[C@@]1(c1cccc(O)c1)C2	20
COc1ccc(C2(C(=O)N[C@@H]3C[C@@H]4C[C@](c5cccc(O)c5)(C3)[C@@H](C)CN4CCCc3ccccc3)CCCC2)cc1	3.6
C[C@H]1CN(CCCc2ccccc2)[C@@H]2C[C@@H](NC(=O)C3(c4ccsc4)CCCC3)C[C@@]1(c1cccc(O)c1)C2	33
C[C@H]1CN(CCCc2ccccc2)[C@@H]2C[C@@H](NC(=O)C3(c4ccccc4)CCCCCC3)C[C@@]1(c1cccc(O)c1)C2	67
Oc1ccc2c3c1O[C@H]1c4[nH]c5ccccc5c4C[C@@]4(O)[C@@H](C2)N(CC2CC2)CC[C@]314	77
C[C@@H](C(=O)N[C@@H]1C[C@@H]2C[C@](c3cccc(O)c3)(C1)[C@@H](C)CN2CCCc1ccccc1)c1ccccc1	58
C=CCN(CC=C)[C@@H](Cc1ccc(O)cc1)C(=O)NC(C)(C)C(=O)NC(C)(C)C(=O)N[C@@H](Cc1ccccc1)C(=O)N[C@@H](CC(C)C)C(=O)O ({Tyr(Nα,Nα-allyl2)}-[Aib][Aib]FL-OH)	43
C[C@H]1CN(CCCc2ccccc2)[C@@H]2C[C@@H](NC(=O)C(C)(C)c3ccccc3)C[C@@]1(c1cccc(O)c1)C2	132
C[C@H]1CN(CCCc2ccccc2)[C@@H]2C[C@@H](NC(=O)C3(c4ccccc4)CCC3)C[C@@]1(c1cccc(O)c1)C2	94
CC1CN(CCCc2ccccc2)[C@@H]2C[C@@H](NC(=O)C3(c4ccccc4)CCCC3)C[C@@]1(c1cccc(O)c1)C2 (single isomer, unassigned; (+))	119
C[C@H]1CN(CCCc2ccccc2)[C@@H]2C[C@@H](NC(=O)C3(c4ccc5ccccc5c4)CCCC3)C[C@@]1(c1cccc(O)c1)C2	75
